test system: U251 CNS; assay: NCI-60 one-dose screen, 48 h (100 = growth as untreated, 0 = no growth, -100 = all killed); conditions: 10 µM unless noted
This is part of a sample that, as a whole, favours compounds with a hit. Of some 83,000 tested, about 20% had one in any assay.
reported.metric: growth (%)

compound | reported.metric | quantity.unit | meas.value
N#C/C(=C\c1ccc(Cl)cc1)n1nnc2cc(F)c(F)cc21 | growth | % | 18.1
OC(c1cccc(C(F)(F)F)c1)c1cnccc1NC1CCCCC1 (stereo not given) | growth | % | 76
CC(=O)O[C@@H]1C2CCC3C(CC[C@@]4(C)C3CC[C@@H]4C(C)N(C)C)[C@@]2(C)CC[C@@H]1NC(=O)C=C(C)C (stereo not given in full) | growth | % | 14.9
Cn1cc(-c2nc(-c3c[nH]c4c(Cl)nccc34)cs2)c2cc(Br)ccc21 | growth | % | 77.9
O=C(/C=C(O)/C=C/c1ccc(SC(F)(F)F)cc1)/C=C/c1ccc(SC(F)(F)F)cc1 | growth | % | 66.5
COc1cccc(/C=N/NC(=O)c2cnn3c2NC(c2ccccc2)C3)c1Oc1ccccc1 (stereo not given) | growth | % | 83.9
O=C1CC(=O)OC(c2ccc([N+](=O)[O-])cc2)O1 | growth | % | 4.05
CCOC(=O)CCN(CC(C)C)C(=S)Nc1ccccc1 | growth | % | 100
CCOc1cccc(-c2nc(N)nc(Nc3ccccc3SSc3ccccc3Nc3nc(N)nc(-c4cccc(OCC)c4)n3)n2)c1 | growth | % | 8.24
COc1ccc2c(c1)oc1c(C)c3c(c(C)c12)C(=O)N(CCN1CCOCC1)C3=O | growth | % | 105
Cc1ncc(C(=O)Nc2ccc(CN3CCN(C)CC3)c(C(F)(F)F)c2)cc1C#Cc1cnc(N)cc1C#N | growth | % | -98.6
O=C(CCN1CCCC1)Nc1ccc2c(Nc3ccc(Br)cc3)c3ccccc3nc2c1 | growth | % | -51
O=c1ccc(-c2nc(N3CCOCC3)c3ccccc3n2)c[nH]1 | growth | % | 99.1
CCCCCN1C=C/C(=C\C(=O)N(C)c2ccc(Oc3ccccc3)cc2)c2ccccc21 | growth | % | 80.1
CCOC(=O)Nc1ccc(-c2ccc3c(c2)NC(=O)/C3=C\c2ccc[nH]2)cc1 | growth | % | 87.9
CCNc1nc2ccc(Nc3ccnc4cc(Cl)ccc34)cc2[nH]1 | growth | % | 75.2
COc1cc2c(c(OC)c1OC)CCC(c1cccc(NC(=O)c3cccc(Br)c3)c1)O2 (stereo not given) | growth | % | 93.5
CCNC(=O)Oc1ccc(/C(=C(\C)c2ccccc2)c2ccc(OCCCN(C)C)cc2)cc1 | growth | % | 66.3
NC(=O)Nc1ccc(-n2cnc3cc(-c4ccc(O)cc4)ccc32)cc1 | growth | % | 83.4
O=C1Nc2cc(-c3cccc(O)c3)ccc2/C1=C/c1ccc[nH]1 | growth | % | 25.9
NC(=NCCCOc1ccc(F)cc1)Nc1ccc(I)cc1 | growth | % | 78.6
CCCCCCCCOc1ccc(/C=N/Nc2cc(C)nc3ccc(Br)cc23)cc1 | growth | % | 16.5
O=C(Cc1ccc(/C=C/C(=O)c2ncc[nH]2)cc1)Nc1ccc(Cl)cc1 | growth | % | -60.6
COc1ccc2c(c1)oc1c(C)c3c(c(C)c12)C(=O)N(N)C3=O | growth | % | 13.6
COc1ccc(NC(N)=NCCCOc2ccc(F)cc2)cc1 | growth | % | 85.7
Cn1c2ccccc2c2c3c(c4c5ccccc5n(C)c4c21)C(=O)OC3 | growth | % | 104
N=C(N)c1ccc(OCCCCCCCCCCOc2ccc(C(=N)N)cc2)cc1 | growth | % | -85.5
CCC(=O)Oc1ccc(/C(=C(\C)c2ccccc2)c2ccc(OCCN3CCCCC3)cc2)cc1 | growth | % | 68.4
COc1cc2c(-c3cc4c(cc3CNCCc3ccc5c(c3)OCO5)OCO4)cccc2c(OC)c1O | growth | % | 75.1
Cc1nc2sccn2c1-c1cn2ccsc2n1 | growth | % | 90.8
CC(C)(C)c1ccc(NS(=O)(=O)c2ccc3nc(NC(=O)c4cnccn4)[nH]c3c2)cc1 | growth | % | 35.3
CCCCCN1C=C/C(=C\C(=O)N(C)c2ccc(OC(F)(F)F)cc2)c2ccccc21 | growth | % | 95.4
CC1(C)CC(=O)C2=C(C1)N(c1ccc(F)cc1F)C(N)=C(C#N)C2c1cc(Br)ccc1F (stereo not given) | growth | % | 94.8
C[C@H]1[C@H](C)CC[C@]2(C(=O)NCC#CCN3CCN(C)CC3)CC[C@]3(C)C(=CC[C@@H]4[C@@]5(C)Cc6c([nH]c7ccccc67)C(C)(C)[C@@H]5CC[C@]43C)[C@H]12 | growth | % | 64.3
CCN(CC)c1ccc(C(=O)c2ccccc2)cc1 | growth | % | 87.2
COc1ccc(N2CCN(c3ccc(NC4=C(Cl)C(=O)c5ncccc5C4=O)cc3)CC2)cc1 | growth | % | 26.7
O=C(Nc1ccccc1C(=O)N/N=C(\c1ccccc1)c1ccccn1)c1ccc(F)cc1 | growth | % | 17.8
C=CCn1c(-c2ccc(-c3nc4ccc(C)cc4[nH]3)cc2)n[nH]c1=S | growth | % | 101
N=C1C(c2nc3ccccc3s2)=C(O)CN1c1cc(Cl)cc(Cl)c1 | growth | % | 64.7
COc1cc(-c2cc(-c3ccc(N(C)C)cc3)nc(N3CCOCC3)c2C#N)cc(OC)c1OC | growth | % | 24.2
